# System under test: T1, PTHR1 on CHO-K1/Ga15/PTHR1 cells (UniProt Q03431 27-593, limits assumed)
# T1 sequence (looked up): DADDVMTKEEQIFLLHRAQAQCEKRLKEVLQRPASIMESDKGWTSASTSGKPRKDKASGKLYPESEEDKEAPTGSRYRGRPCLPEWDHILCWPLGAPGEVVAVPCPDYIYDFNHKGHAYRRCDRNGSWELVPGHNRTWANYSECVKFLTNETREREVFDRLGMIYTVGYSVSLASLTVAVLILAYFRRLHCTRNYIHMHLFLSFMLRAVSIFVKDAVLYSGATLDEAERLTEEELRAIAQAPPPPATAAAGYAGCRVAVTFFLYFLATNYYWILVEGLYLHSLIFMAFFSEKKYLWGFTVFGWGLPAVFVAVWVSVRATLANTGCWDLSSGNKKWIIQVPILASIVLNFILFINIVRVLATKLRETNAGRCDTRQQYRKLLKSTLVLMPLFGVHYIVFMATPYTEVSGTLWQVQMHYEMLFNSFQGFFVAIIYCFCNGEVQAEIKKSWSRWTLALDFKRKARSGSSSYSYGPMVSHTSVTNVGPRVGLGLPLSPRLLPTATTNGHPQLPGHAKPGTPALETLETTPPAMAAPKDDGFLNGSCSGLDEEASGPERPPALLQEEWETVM
# Protocol text: cell-based or functional assay
Endpoint: cAMP accumulation (HTRF): -log10EC50

Below, 5 binders whose answers are already recorded.
>>> result("PIPVKDIMDLRAYLRAEYELREMLLRLLEEIF [R2-19]")
"-4.69 -log10EC50 (as headed)"
>>> result("GIAVLTILDLRAKLRAEYELREMLLRLLEEIF [R2-14]")
"-11.3 -log10EC50 (as headed)"
>>> result("GIAVITIMIDYAKLRAEYELREMLLRLLEEIF [R2-22]")
"-10.1 -log10EC50 (as headed)"
>>> result("VDFEIQLMQQRAQWIADYRIREFLDKLIAEIF [R1-94]")
"-10.1 -log10EC50 (as headed)"
>>> result("AVAEIQLMHQRAKWAIQEIGIKITRELLERYL [R2-42]")
"-6.54 -log10EC50 (as headed)"

Query binder follows.
# lookup: cAMP accumulation (HTRF): -log10EC50 of AVAEIQLMHQRAKWKLELELKVKLLEILKDVY [R2-25]
-7.89 -log10EC50 (as headed)
